# measured.on: Sphingosine kinase 2 (Homo sapiens) (UniProt Q9NRA0)
# run.description: Inhibition of human recombinant SphK2 remaining enzyme activity at 1 uM using sphingosine as substrate incubated for 20 mins by scintillation counting analysis in presence of [gamma-32P]ATP
recorded.endpoint: Activity (%)

[[record]]
smiles_input = "CC1(C)CCC(C)(C)c2cc(COc3ccc4cc(-c5noc([C@@H]6CCCN6C(=N)N)n5)ccc4c3)ccc21"
units_text = "%"
measured_result = 104

[[record]]
smiles_input = "Cc1ccc(COc2ccc3cc(-c4noc([C@@H]5CCCN5C(=N)N)n4)ccc3c2)cc1"
units_text = "%"
measured_result = 94

[[record]]
smiles_input = "N=C(N)N1CCC[C@H]1c1nc(-c2ccc3cc(OCC(=O)c4ccc(C(F)(F)F)cc4)ccc3c2)no1"
units_text = "%"
measured_result = 65

[[record]]
smiles_input = "N=C(N)N1CCC[C@H]1c1nc(-c2ccc3cc(OCc4cccc(Cl)c4)ccc3c2)no1"
units_text = "%"
measured_result = 46

[[record]]
smiles_input = "CC(C)COc1ccc2cc(-c3noc([C@@H]4[C@@H](O)CCN4C(=N)N)n3)ccc2c1"
units_text = "%"
measured_result = 53


1: N=C(N)N1CCC[C@H]1c1nc(-c2ccc3cc(OCc4ccc(-c5ccccc5)cc4)ccc3c2)no1
2: N=C(N)N1CCC[C@H]1c1nc(-c2ccc3cc(OCCc4ccc(C(F)(F)F)cc4)ccc3c2)no1
3: N=C(N)N1CCC[C@H]1c1nc(-c2ccc3cc(OCC(=O)c4ccc(-c5ccccc5)cc4)ccc3c2)no1
Task: Order the items by recorded Activity; the first position goes to the largest value. Sort the labels as requested; that list is your answer.
Output: 3, 1, 2
(3: 77%, 1: 51%, 2: 30%)

###

# measured.on: Sphingosine kinase 2 (Homo sapiens) (UniProt Q9NRA0)
# Sequence (whole entry): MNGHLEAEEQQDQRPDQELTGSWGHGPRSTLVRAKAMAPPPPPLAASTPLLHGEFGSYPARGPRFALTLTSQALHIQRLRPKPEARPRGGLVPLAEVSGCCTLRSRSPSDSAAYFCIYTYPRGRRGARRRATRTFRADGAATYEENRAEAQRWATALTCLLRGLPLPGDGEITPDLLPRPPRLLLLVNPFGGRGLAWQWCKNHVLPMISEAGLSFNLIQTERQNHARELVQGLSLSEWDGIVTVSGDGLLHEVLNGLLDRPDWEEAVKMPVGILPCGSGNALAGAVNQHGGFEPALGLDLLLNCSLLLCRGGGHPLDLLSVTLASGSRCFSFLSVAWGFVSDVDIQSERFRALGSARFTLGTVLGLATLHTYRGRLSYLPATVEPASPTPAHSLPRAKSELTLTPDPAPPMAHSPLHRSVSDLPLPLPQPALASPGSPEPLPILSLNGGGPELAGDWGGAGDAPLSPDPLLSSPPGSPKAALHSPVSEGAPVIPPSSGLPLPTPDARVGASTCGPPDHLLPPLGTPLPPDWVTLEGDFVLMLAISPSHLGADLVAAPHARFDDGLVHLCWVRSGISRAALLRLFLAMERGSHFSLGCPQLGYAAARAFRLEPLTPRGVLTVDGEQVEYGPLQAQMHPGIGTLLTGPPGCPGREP
# run.description: Inhibition of human recombinant SphK2 remaining enzyme activity at 1 uM using sphingosine as substrate incubated for 20 mins by scintillation counting analysis in presence of [gamma-32P]ATP
recorded.endpoint: Activity (%)

Past entries and their recorded results:
[[record]]
smiles_input = "N=C(N)N1CCC[C@H]1c1nc(-c2ccc3cc(OCc4ccc(Cl)cc4)ccc3c2)no1"
recorded_endpoint = "Activity"
measured_result = 56

[[record]]
smiles_input = "CCCCCCCCc1ccc(-c2noc([C@@H]3CCCN3C(=N)N)n2)cc1"
recorded_endpoint = "Activity"
measured_result = 61

[[record]]
smiles_input = "CCCCCCOc1ccc2cc(-c3noc([C@@H]4CCCN4C(=N)N)n3)ccc2c1"
recorded_endpoint = "Activity"
measured_result = 64


A: N#Cc1ccc(COc2ccc3cc(-c4noc([C@@H]5CCCN5C(=N)N)n4)ccc3c2)cc1
B: N=C(N)N1CCC[C@H]1c1nc(-c2ccc3cc(OCC(=O)c4ccccc4)ccc3c2)no1
C: CCCCOc1ccc2cc(-c3noc([C@@H]4CCCN4C(=N)N)n3)ccc2c1
Task: Order the 3 compounds from highest to lowest Activity. Hello, could you send the labels back in the order asked? Thank you.
Output: B, C, A
(B: 103%, C: 69%, A: 43%)

###

# measured.on: UniProt:Q9NYA1
# Sequence (Q9NYA1 whole entry): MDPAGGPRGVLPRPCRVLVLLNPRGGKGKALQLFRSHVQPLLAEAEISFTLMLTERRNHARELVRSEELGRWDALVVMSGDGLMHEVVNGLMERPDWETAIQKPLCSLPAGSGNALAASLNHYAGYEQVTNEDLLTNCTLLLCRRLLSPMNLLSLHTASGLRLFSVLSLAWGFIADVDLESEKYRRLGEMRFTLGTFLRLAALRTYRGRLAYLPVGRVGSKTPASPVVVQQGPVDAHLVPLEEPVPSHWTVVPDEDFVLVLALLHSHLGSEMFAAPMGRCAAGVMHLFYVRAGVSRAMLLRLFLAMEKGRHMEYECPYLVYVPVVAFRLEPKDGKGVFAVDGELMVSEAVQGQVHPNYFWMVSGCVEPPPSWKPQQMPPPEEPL
# run.description: Inhibition of human recombinant SphK1 using sphingosine as substrate incubated for 20 mins by scintillation counting analysis in presence of [gamma-32P]ATP
recorded.endpoint: Ki (nM)

[[record]]
smiles_input = "CCCCCOc1ccc2cc(-c3noc([C@@H]4[C@@H](O)CCN4C(=N)N)n3)ccc2c1"
measured_on = "UniProt:Q9NYA1"
recorded_endpoint = "Ki"
measured_result = 730


a: CC(C)COc1ccc2cc(-c3noc([C@@H]4[C@@H](O)CCN4C(=N)N)n3)ccc2c1
b: CCCCCOc1ccc2cc(-c3noc([C@@H]4CCCN4C(=N)N)n3)ccc2c1
Task: Which of the two gives a bigger number for Ki: a or b ? Give the label of your selection.
Output: b
(b: 7200 nM, a: 930 nM)

###

# Organism: Homo sapiens
# run.description: Selectivity ratio of Ki for human recombinant SphK1 to Ki for human recombinant SphK2
recorded.endpoint: Ratio Ki

[[record]]
smiles_input = "CCCCCOc1ccc2cc(-c3noc([C@@H]4[C@@H](O)CCN4C(=N)N)n3)ccc2c1"
measured_result = 0.8


I: CC(C)COc1ccc2cc(-c3noc([C@@H]4[C@@H](O)CCN4C(=N)N)n3)ccc2c1
II: CCCCCOc1ccc2cc(-c3noc([C@@H]4CCCN4C(=N)N)n3)ccc2c1
Task: Between the entries labeled I and II , whose measured Ratio Ki is lower? Use the label to indicate which entry you chose.
Output: I
(I: 0.9, II: 7.3)

###

# measured.on: Sphingosine kinase 2 (Homo sapiens)
# run.description: Inhibition of human recombinant SphK2 using sphingosine as substrate incubated for 20 mins by scintillation counting analysis in presence of [gamma-32P]ATP
pKi: −log10 of the molar value.
recorded.endpoint: pKi

[[record]]
smiles_input = "CCCCCOc1ccc2cc(-c3noc([C@@H]4[C@@H](O)CCN4C(=N)N)n3)ccc2c1"
measured_result = 6.05

[[record]]
smiles_input = "N=C(N)N1CCC[C@H]1c1nc(-c2ccc3cc(OCc4ccc(C(F)(F)F)cc4)ccc3c2)no1"
measured_result = 5.99

[[record]]
smiles_input = "CCCCCOc1ccc2cc(-c3noc([C@@H]4CCCN4C(=N)N)n3)ccc2c1"
measured_result = 6.01

[[record]]
smiles_input = "CCCCCCCCc1ccc(-c2noc([C@@H]3CCCN3C(=N)N)n2)cc1"
measured_result = 5.85


A: CC(C)COc1ccc2cc(-c3noc([C@@H]4[C@@H](O)CCN4C(=N)N)n3)ccc2c1
B: CCCCCCOc1ccc2cc(-c3noc([C@@H]4CCCN4C(=N)N)n3)ccc2c1
Task: Pick one: A or B . Which has the bigger pKi number? Refer to your chosen item by its label in the answer.
Output: A

###

# measured.on: Sphingosine kinase 2 (Homo sapiens) (UniProt Q9NRA0)
# run.description: Inhibition of human recombinant SphK2 remaining enzyme activity at 1 uM using sphingosine as substrate incubated for 20 mins by scintillation counting analysis in presence of [gamma-32P]ATP
recorded.endpoint: Activity (%)

These recorded examples may help you get a feel for the data.
[[record]]
smiles_input = "N=C(N)N1CCC[C@H]1c1nc(-c2ccc3cc(OCc4ccc(Br)cc4)ccc3c2)no1"
measured_result = 35

[[record]]
smiles_input = "CCCCCCCOc1ccc2cc(-c3noc([C@@H]4CCCN4C(=N)N)n3)ccc2c1"
measured_result = 83

[[record]]
smiles_input = "N=C(N)N1CCC[C@H]1c1nc(-c2ccc3cc(OCC4CCCC4)ccc3c2)no1"
measured_result = 57

[[record]]
smiles_input = "N=C(N)N1CCC[C@H]1c1nc(-c2ccc3cc(OCc4ccc(C(F)(F)F)cc4)ccc3c2)no1"
measured_result = 42

[[record]]
smiles_input = "COCCCOc1ccc2cc(-c3noc([C@@H]4CCCN4C(=N)N)n3)ccc2c1"
measured_result = 109


I: N=C(N)N1CCC[C@H]1c1nc(-c2ccc3cc(OCc4cccc(Br)c4)ccc3c2)no1
II: N=C(N)N1CCC[C@H]1c1nc(-c2ccc3cc(OCCc4cccc(C(F)(F)F)c4)ccc3c2)no1
III: N=C(N)N1CCC[C@H]1c1nc(-c2ccc3cc(OCc4cccc(C(F)(F)F)c4)ccc3c2)no1
IV: COCCOc1ccc2cc(-c3noc([C@@H]4CCCN4C(=N)N)n3)ccc2c1
Task: Rank ascending by Activity. List the labels according to the requested ordering.
Output: II, I, III, IV

###

# measured.on: UniProt Q9NRA0
# Sequence (whole entry): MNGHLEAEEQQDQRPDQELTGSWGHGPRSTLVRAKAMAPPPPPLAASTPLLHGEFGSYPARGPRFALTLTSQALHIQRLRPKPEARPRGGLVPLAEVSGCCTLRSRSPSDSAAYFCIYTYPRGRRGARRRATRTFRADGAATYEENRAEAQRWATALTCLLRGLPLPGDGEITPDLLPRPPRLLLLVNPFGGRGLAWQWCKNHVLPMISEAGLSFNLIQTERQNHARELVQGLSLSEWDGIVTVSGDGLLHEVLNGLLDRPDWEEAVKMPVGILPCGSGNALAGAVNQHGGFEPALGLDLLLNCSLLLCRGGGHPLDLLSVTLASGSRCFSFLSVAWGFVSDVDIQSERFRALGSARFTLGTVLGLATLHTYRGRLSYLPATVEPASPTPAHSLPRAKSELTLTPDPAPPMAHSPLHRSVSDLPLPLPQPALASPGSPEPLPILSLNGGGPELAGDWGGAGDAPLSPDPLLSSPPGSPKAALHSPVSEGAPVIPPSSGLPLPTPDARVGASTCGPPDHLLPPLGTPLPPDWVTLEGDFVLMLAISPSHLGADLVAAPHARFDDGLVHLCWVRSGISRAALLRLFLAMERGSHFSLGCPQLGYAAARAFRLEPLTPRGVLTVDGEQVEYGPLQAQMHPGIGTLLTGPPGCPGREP
# run.description: Inhibition of human recombinant SphK2 remaining enzyme activity at 1 uM using sphingosine as substrate incubated for 20 mins by scintillation counting analysis in presence of [gamma-32P]ATP
recorded.endpoint: Activity (%)

# example entries with known answers
[[record]]
smiles_input = "N=C(N)N1CCC[C@H]1c1nc(-c2ccc3cc(O)ccc3c2)no1"
units_text = "%"
measured_result = 106

[[record]]
smiles_input = "N=C(N)N1CCC[C@H]1c1nc(-c2ccc3cc(OCc4ccccc4)ccc3c2)no1"
units_text = "%"
measured_result = 97

[[record]]
smiles_input = "Cc1ccc(S(=O)(=O)Oc2ccc3cc(-c4noc([C@@H]5CCCN5C(=N)N)n4)ccc3c2)cc1"
units_text = "%"
measured_result = 89

[[record]]
smiles_input = "CCCCCOc1ccc2cc(-c3noc([C@@H]4CCCN4C(=N)N)n3)ccc2c1"
units_text = "%"
measured_result = 51

[[record]]
smiles_input = "CCCCCOc1ccc2cc(-c3noc([C@@H]4[C@@H](O)CCN4C(=N)N)n3)ccc2c1"
units_text = "%"
measured_result = 46


1: N=C(N)N1CCC[C@H]1c1nc(-c2ccc3cc(OCCc4ccccc4C(F)(F)F)ccc3c2)no1
2: CC(C)COc1ccc2cc(-c3noc([C@@H]4CCCN4C(=N)N)n3)ccc2c1
Task: Which shows the larger Activity value: 1 or 2 ? Indicate your choice by writing its label.
Output: 2
